Data provenance is patent US7888329B2.

Biological target: human A3 AR (Homo sapiens, UniProt P0DMS8)
Construct: expressed in transfected cells; membranes
Sequence (P0DMS8 whole entry): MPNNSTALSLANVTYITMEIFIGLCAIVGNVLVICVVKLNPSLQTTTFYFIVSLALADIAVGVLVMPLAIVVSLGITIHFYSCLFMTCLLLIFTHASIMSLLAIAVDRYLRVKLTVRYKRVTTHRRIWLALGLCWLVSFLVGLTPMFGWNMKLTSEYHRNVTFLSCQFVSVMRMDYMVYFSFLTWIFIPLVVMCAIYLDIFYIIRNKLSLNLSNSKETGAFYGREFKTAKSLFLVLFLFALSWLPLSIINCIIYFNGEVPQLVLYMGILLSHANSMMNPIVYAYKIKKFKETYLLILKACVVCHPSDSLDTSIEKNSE
Experiment: Radioligand competition binding with 125I-ABA, membranes of HEK 293 cells stably expressing the receptor
Settings: Ki derived from IC50, class symbols
Procedure: Cell culture and membrane preparation. Sf9 cells were cultured in Grace's medium supplemented with 10% fetal bovine serum, 2.5 μg/ml amphotericin B and 50 μg/ml gentamycin in an atmosphere of 50% N2/50% O2. Viral infection was performed at a density of 2.5×10^6 cells/mL with a multiplicity of infection of two for each virus used. […] Radioligand Binding Assays. […] Nonspecific binding was measured in the presence of 50 μM NECA. […]
pKi: −log10 of the molar value.
Reported Metric: pKi

See these solved cases before continuing.
>>> endpoint_result("Nc1nc(C#CCC2CCN(C(=O)OCCOCc3ccccc3)CC2)nc2c1ncn2[C@@H]1O[C@H](C(=O)NC2CC2)C(O)[C@@H]1O (stereo partly drawn) [Compound 5]")
"> 7.00"
>>> endpoint_result("Nc1nc(C#CCC2CCN(C(=O)Oc3ccc(C(=O)O)cc3)CC2)nc2c1ncn2[C@@H]1O[C@H](C(=O)NC2CC2)C(O)[C@@H]1O (stereo partly drawn) [Compound 14]")
"< 7.00"
>>> endpoint_result("CCNC(=O)[C@H]1O[C@@H](n2cnc3c(N)nc(C#CCC4CCN(C(=O)Oc5ccc(OC)cc5)CC4)nc32)[C@@H](O)C1O (stereo partly drawn) [Compound 15]")
"> 8.00"
>>> endpoint_result("Cc1ccc(OC(=O)N2CCC(CC#Cc3nc(N)c4ncn([C@@H]5O[C@H](CO)[C@@H](O)[C@H]5O)c4n3)CC2)cc1C [Compound 53]")
"> 7.00"
>>> endpoint_result("Nc1nc(C#CCC2CCN(C(=O)Oc3ccc(Cl)c(Cl)c3)CC2)nc2c1ncn2[C@@H]1O[C@H](C(=O)NC2CC2)C(O)[C@@H]1O (stereo partly drawn) [Compound 51]")
"> 7.00"
>>> endpoint_result("Nc1nc(C#CCC2CCN(C(=O)Oc3cccc(C(F)(F)F)c3)CC2)nc2c1ncn2[C@@H]1O[C@H](C(=O)NC2CC2)C(O)[C@@H]1O (stereo partly drawn) [Compound 3]")
"> 7.00"

What does the data say about its pKi? Entry: COc1ccccc1OC(=O)N1CCC(CC#Cc2nc(N)c3ncn([C@@H]4O[C@H](CO)[C@@H](O)[C@H]4O)c3n2)CC1 [Compound 36]
> 7.00

What does the data say about its pKi? Entry: Cc1ccc(OC(=O)N2CCC(CCCc3nc(N)c4ncn([C@@H]5O[C@H](C(=O)NC6CC6)C(O)[C@@H]5O)c4n3)CC2)cc1 (stereo partly drawn) [Compound 39]
< 7.00

What does the data say about its pKi? Entry: CCNC(=O)[C@H]1O[C@@H](n2cnc3c(N)nc(C#CCC4CCN(C(=O)Oc5ccc(N)cc5)CC4)nc32)[C@@H](O)C1O (stereo partly drawn) [Compound 34]
> 7.00

What does the data say about its pKi? Entry: COc1ccc(OC(=O)N2CCC(CC#Cc3nc(N)c4ncn([C@@H]5O[C@H](CO)[C@@H](O)[C@H]5O)c4n3)CC2)cc1 [Compound 28]
> 7.00

What does the data say about its pKi? Entry: Nc1nc(C#CCC2CCN(C(=O)Oc3ccccc3Cl)CC2)nc2c1ncn2[C@@H]1O[C@H](CO)[C@@H](O)[C@H]1O [Compound 35]
> 7.00

What does the data say about its pKi? Entry: Nc1nc(C#CCC2CCN(C(=O)Oc3ccccc3Cl)CC2)nc2c1ncn2[C@@H]1O[C@H](C(=O)NC2CC2)C(O)[C@@H]1O (stereo partly drawn) [Compound 22]
< 7.00

What does the data say about its pKi? Entry: Nc1nc(C#CCC2CCN(C(=O)Nc3cccc(Cl)c3)CC2)nc2c1ncn2[C@@H]1O[C@H](C(=O)NC2CC2)C(O)[C@@H]1O (stereo partly drawn) [Compound 43]
< 7.00

What does the data say about its pKi? Entry: CCNC(=O)[C@H]1O[C@@H](n2cnc3c(N)nc(C#CCC4CCN(C(=O)Oc5ccc(Cl)c(Cl)c5)CC4)nc32)[C@@H](O)C1O (stereo partly drawn) [Compound 49]
> 8.00

What does the data say about its pKi? Entry: Nc1nc(C#CCC2CCN(C(=O)OCc3ccc([N+](=O)[O-])cc3)CC2)nc2c1ncn2[C@@H]1O[C@H](C(=O)NC2CC2)C(O)[C@@H]1O (stereo partly drawn) [Compound 18]
> 7.00

What does the data say about its pKi? Entry: Nc1nc(C#CCC2CCN(C(=O)Oc3ccc(F)cc3)CC2)nc2c1ncn2[C@@H]1O[C@H](CO)[C@@H](O)[C@H]1O [Compound 11]
> 7.00

What does the data say about its pKi? Entry: Nc1nc(C#CCC2CCN(C(=O)OCc3ccccc3)CC2)nc2c1ncn2[C@@H]1O[C@H](C(=O)NC2CC2)C(O)[C@@H]1O (stereo partly drawn) [Compound 2, reference compound]
> 7.00

What does the data say about its pKi? Entry: CCNC(=O)[C@H]1O[C@@H](n2cnc3c(N)nc(CCCC4CCN(C(=O)Oc5ccc(NO)cc5)CC4)nc32)[C@@H](O)C1O (stereo partly drawn) [Compound 37]
> 7.00

What does the data say about its pKi? Entry: Nc1nc(C#CCC2CCN(C(=O)Nc3cccc(Cl)c3)CC2)nc2c1ncn2[C@@H]1O[C@H](CO)C(O)[C@@H]1O (stereo partly drawn) [Compound 46]
> 7.00

What does the data say about its pKi? Entry: Nc1nc(C#CCC2CCN(C(=O)Oc3ccc(Cl)cc3)CC2)nc2c1ncn2[C@@H]1O[C@H](CO)[C@@H](O)[C@H]1O [Compound 27]
> 7.00

What does the data say about its pKi? Entry: Nc1nc(CCCC2CCN(C(=O)Oc3ccccc3)CC2)nc2c1ncn2[C@@H]1O[C@H](C(=O)NC2CC2)C(O)[C@@H]1O (stereo partly drawn) [Compound 38]
< 7.00

What does the data say about its pKi? Entry: Nc1nc(C#CCC2CCN(C(=O)Oc3ccccc3)CC2)nc2c1ncn2[C@@H]1O[C@H](CO)[C@@H](O)[C@H]1O [Compound 4, reference compound]
> 8.00

What does the data say about its pKi? Entry: Nc1nc(C#CCC2CCN(C(=O)Nc3ccc(Cl)cc3)CC2)nc2c1ncn2[C@@H]1O[C@H](CO)C(O)[C@@H]1O (stereo partly drawn) [Compound 45]
> 7.00

What does the data say about its pKi? Entry: CCNC(=O)[C@H]1O[C@@H](n2cnc3c(N)nc(C#CCC4CCN(C(=O)Oc5ccc([N+](=O)[O-])cc5)CC4)nc32)[C@@H](O)C1O (stereo partly drawn) [Compound 19]
> 8.00
